OBSERVATION TYPE: melting point

Observe how each entry below is paired with its result.
{"columns": ["SAMPLE SMILES", "melting point"],
 "data": [
  ["CCCOc1ccc(Cl)c2[nH]cc(-c3ccc(OC)cc3)c(=O)c12", "145 to 147 °C"],
  ["CCCOc1ccc(C)c2c(=O)c(-c3sc4ccccc4c3C)c[nH]c12", "90 to 92 °C"],
  ["CCCOc1ccc(OC)c2c(=O)c(-c3ccc(OC)cc3)c[nH]c12", "223 to 224 °C"],
  ["CCCOc1cccc2c(=O)c(-c3c(F)c(F)c(F)c(F)c3F)c[nH]c12", "160 °C"],
  ["CCCOc1ccc(C)c2c(=O)c(-c3ccc(OC)cc3)c[nH]c12", "192 to 193 °C"]
]}

--- query ---
Query string: Specify reported melting point for the molecule shown: "COc1ccc(-c2c[nH]c3c(OCC4CC4)ccc(OC)c3c2=O)cc1"
Result string: 212 to 214 °C

====

test system: human neuroblastoma cell lines SH-SY5Y treated with 1-methyl-4-phenylpyridinium (MPP+); assay: Improvement of mitochondrial function (Alamar Blue mitochondrial oxidation reduction activity) in MPP+-treated SH-SY5Y cells; format: cell-based; conditions: compound 0.01 μg/ml, 1.5 mM MPP+, relative to cells in DMSO alone = 100%, read-out: Fluorescence Intensity (%)
Strictly below 50% in activity at 0.01 µg/mL: satisfied. Otherwise: not satisfied.

{"columns": ["SAMPLE SMILES", "QUALITATIVE LABEL"],
 "data": [
  ["COc1ccc(-c2c[nH]c3c(OCC4CC4)cc(C)c(C)c3c2=O)cc1", "not satisfied"]
]}

Query string: Could you please tell me whether activity at 0.01 µg/mL recorded for "CCCOc1cccc2c(=O)c(-c3ccc(OC)cc3)c[nH]c12" is less than 50%?
Result string: not satisfied

Query string: Could you please tell me whether activity at 0.01 µg/mL recorded for "COc1ccc(-c2c[nH]c3c(-n4ccnc4)ccc(C)c3c2=O)cc1" is less than 50%?
Result string: satisfied

Query string: Could you please tell me whether activity at 0.01 µg/mL recorded for "CCCOc1ccc(C2CC2)c2c(=O)c(-c3ccc(OC)cc3)c[nH]c12" is less than 50%?
Result string: not satisfied

Query string: Could you please tell me whether activity at 0.01 µg/mL recorded for "CCCOc1c(OC)cc(C)c2c(=O)c(-c3ccc(OC)cc3)c[nH]c12" is less than 50%?
Result string: satisfied

Query string: Could you please tell me whether activity at 0.01 µg/mL recorded for "CCCOc1ccc(OC)c2c(=O)c(-c3ccc(OC)cc3OC)c[nH]c12" is less than 50%?
Result string: not satisfied

Query string: Could you please tell me whether activity at 0.01 µg/mL recorded for "CCn1cc(-c2ccc(OC)cc2)c(=O)c2ccc(OC)cc21" is less than 50%?
Result string: not satisfied

Query string: Could you please tell me whether activity at 0.01 µg/mL recorded for "COc1ccc(-c2c[nH]c3c(Br)ccc(C)c3c2=O)cc1" is less than 50%?
Result string: not satisfied

Query string: Could you please tell me whether activity at 0.01 µg/mL recorded for "CCCOc1ccc(C)c2c(=O)c(-c3ccsc3)c[nH]c12" is less than 50%?
Result string: satisfied

Query string: Could you please tell me whether activity at 0.01 µg/mL recorded for "CCCSc1ccc(C)c2c(=O)c(-c3ccc(OC)cc3)c[nH]c12" is less than 50%?
Result string: satisfied

Query string: Could you please tell me whether activity at 0.01 µg/mL recorded for "COc1ccc(-c2c[nH]c3c(Oc4ccccc4)cccc3c2=O)cc1" is less than 50%?
Result string: satisfied

Query string: Could you please tell me whether activity at 0.01 µg/mL recorded for "CCCOc1ccc(OC)c2c(=O)c(-c3ccc(OC)cc3)c[nH]c12" is less than 50%?
Result string: not satisfied

Query string: Could you please tell me whether activity at 0.01 µg/mL recorded for "CCCOc1ccc(OC)c2c(=O)c(-c3ccc(Cl)cc3Cl)c[nH]c12" is less than 50%?
Result string: satisfied

Query string: Could you please tell me whether activity at 0.01 µg/mL recorded for "CCCOc1cc(F)cc2c(=O)c(-c3ccc(OC)cc3)c[nH]c12" is less than 50%?
Result string: satisfied

Query string: Could you please tell me whether activity at 0.01 µg/mL recorded for "CCCCc1ccc(C(=O)N(C)C)c2c(=O)c(-c3ccc(OC)cc3)c[nH]c12" is less than 50%?
Result string: not satisfied

====

OBSERVATION TYPE: melting point

Observe how each entry below is paired with its result.
{"columns": ["SAMPLE SMILES", "melting point"],
 "data": [
  ["CCCOc1ccc(C)c2c(=O)c(-c3ccc(OC)cc3OC)c[nH]c12", "193 to 194 °C"],
  ["CCCCc1ccc(C)c2c(=O)c(-c3ccc(OC)cc3)c[nH]c12", "186 to 188 °C"],
  ["COc1ccc(-c2c[nH]c3c(OCC4CC4)cc(C)c(C)c3c2=O)cc1", "99 to 101 °C"]
]}

Query string: Specify reported melting point for the compound shown: "COc1ccc(-c2c[nH]c3c(Oc4ccccc4)cccc3c2=O)cc1"
Result string: 250 to 251 °C

Query string: Specify reported melting point for the compound shown: "COc1ccc(-c2c[nH]c3c(OCC4CC4)ccc(C)c3c2=O)c(F)c1"
Result string: 198 to 199 °C

Query string: Specify reported melting point for the compound shown: "CCCOc1cccc2c(=O)c(-c3cccc(-c4ccc(C)cc4)c3)c[nH]c12"
Result string: 189 to 193 °C

Query string: Specify reported melting point for the compound shown: "COc1ccc(-c2c[nH]c3c(N4CCCCCC4)ccc(C)c3c2=O)cc1"
Result string: 249 to 250 °C

Query string: Specify reported melting point for the compound shown: "COc1ccc(OCC2CC2)c2[nH]c(C)c(-c3ccco3)c(=O)c12"
Result string: 189 to 190 °C

Query string: Specify reported melting point for the compound shown: "CCCCc1ccc(C(=O)N(C)C)c2c(=O)c(-c3ccc(OC)cc3)c[nH]c12"
Result string: 198 to 200 °C

====

test system: human neuroblastoma cell lines SH-SY5Y treated with 1-methyl-4-phenylpyridinium (MPP+); assay: Improvement of mitochondrial function (Alamar Blue mitochondrial oxidation reduction activity) in MPP+-treated SH-SY5Y cells; assay type: cell-based; conditions: compound 0.03 μg/ml, 1.5 mM MPP+, relative to cells in DMSO alone = 100%, read-out: Fluorescence Intensity (%)
Each entry below carries its recorded activity at 0.03 µg/mL.

Observe how each entry below is paired with its result.
{"columns": ["MOLECULE", "activity at 0.03 µg/mL"],
 "data": [
  ["COc1ccc(-c2c[nH]c3c(-n4ccnc4)ccc(C)c3c2=O)cc1 [Example 67]", "54%"],
  ["CCCOc1ccc(C)c2c(=O)c(-c3csc4ccccc34)c[nH]c12 [Example 63]", "48%"],
  ["CCCOc1cccc2c(=O)c(-c3ccc(OC)cc3)c[nH]c12 [Example 3]", "77%"],
  ["CCCOc1ccc(OC)c2c(=O)c(-c3ccc(Cl)cc3Cl)c[nH]c12 [Example 38]", "54%"],
  ["CCCOc1c(C)cc(C)c2c(=O)c(-c3ccc(OC)cc3)c[nH]c12 [Example 23]", "63%"],
  ["CCCOc1ccc(C)c2c(=O)c(-c3ccncc3)c[nH]c12 [Example 95]", "56%"]
]}

Query string: Specify reported activity at 0.03 µg/mL for the molecule shown: CCCOc1ccc(OC)c2c(=O)c(-c3ccc(OC)cc3)c[nH]c12 [Example 13]
Result string: 65%

Query string: Specify reported activity at 0.03 µg/mL for the molecule shown: CCCOc1ccc(OC)c2c(=O)c(-c3ccc(OC)cc3OC)c[nH]c12 [Example 21]
Result string: 68%

====

tested on: human neuroblastoma cell lines SH-SY5Y treated with 1-methyl-4-phenylpyridinium (MPP+); assay: Improvement of mitochondrial function (Alamar Blue mitochondrial oxidation reduction activity) in MPP+-treated SH-SY5Y cells; format: cell-based; settings: compound 1 μg/ml, 1.5 mM MPP+, relative to cells in DMSO alone = 100%, read-out: Fluorescence Intensity (%)
Each entry below carries its recorded activity at 1 µg/mL.
Answer with the figure and its unit, nothing else.

{"columns": ["COMPOUND", "TARGET OR SYSTEM", "activity at 1 µg/mL"],
 "data": [
  ["COc1ccc(-c2c[nH]c3c(Oc4ccccc4)cccc3c2=O)cc1 [Example 18]", "human neuroblastoma cell lines SH-SY5Y treated with 1-methyl-4-phenylpyridinium (MPP+)", "30%"],
  ["CCCOc1ccc(OC)c2c(=O)c(-c3cccc4ccccc34)c[nH]c12 [Example 51]", "human neuroblastoma cell lines SH-SY5Y treated with 1-methyl-4-phenylpyridinium (MPP+)", "49%"],
  ["CCCOc1ccc(C)c2c(=O)c(-c3csc4ccccc34)c[nH]c12 [Example 63]", "human neuroblastoma cell lines SH-SY5Y treated with 1-methyl-4-phenylpyridinium (MPP+)", "21%"],
  ["CCCOc1c(OC)cc(C)c2c(=O)c(-c3ccc(OC)cc3)c[nH]c12 [Example 37]", "human neuroblastoma cell lines SH-SY5Y treated with 1-methyl-4-phenylpyridinium (MPP+)", "59%"]
]}

Query string: Specify reported activity at 1 µg/mL for the compound shown: COc1ccc(-c2c[nH]c3c(-n4ccnc4)ccc(C)c3c2=O)cc1 [Example 67]
Result string: 42%
